- Assayed target: GLP-1R (Homo sapiens)
- Sequence (P43220 24-463): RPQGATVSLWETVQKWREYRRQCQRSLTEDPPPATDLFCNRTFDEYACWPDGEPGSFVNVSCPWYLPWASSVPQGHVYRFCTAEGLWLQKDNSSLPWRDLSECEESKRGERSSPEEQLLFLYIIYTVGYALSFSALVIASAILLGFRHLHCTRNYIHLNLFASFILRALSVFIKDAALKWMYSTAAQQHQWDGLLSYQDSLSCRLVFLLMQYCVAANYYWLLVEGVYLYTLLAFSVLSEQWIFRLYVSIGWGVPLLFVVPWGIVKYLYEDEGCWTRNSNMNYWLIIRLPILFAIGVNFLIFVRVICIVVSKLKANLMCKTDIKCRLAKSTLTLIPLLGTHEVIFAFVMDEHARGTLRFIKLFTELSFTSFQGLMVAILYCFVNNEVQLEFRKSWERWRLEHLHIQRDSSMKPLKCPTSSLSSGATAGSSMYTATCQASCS
- Experimental details: GLP-1R activation: cAMP increase in CHO cells stably expressing GLP-1R
- Type: cell-based
- Test parameters: cAMP increase, CHO cells stably expressing GLP-1R, 10 point dose response, 30 minutes incubation; read-out: EC50
# Lookup of reported pEC50 keyed by entry
# log scale: pEC50 equals minus log10 of the concentration in mol/L

Worked cases, pEC50 given:
compound="COCCn1c(Cc2ccc(-c3cccc(OCc4ccc(C#N)cc4F)n3)cc2C(F)(F)F)nc2ccc(C(=O)O)cc21 [Example 172]" property_name=pEC50 value_reported=7.42
compound="COCCn1c(Cc2c(F)cc(-c3ccnc(OCc4ccc(C#N)cc4F)n3)cc2F)nc2ccc(C(=O)O)cc21 [Example 378]" property_name=pEC50 value_reported=7.91
compound="N#Cc1ccc(COc2cccc(-c3ccc(Cc4nc5ccc(C(=O)O)nc5n4CC4(CF)CC4)cc3F)n2)c(F)c1 [Example 277]" property_name=pEC50 value_reported=8.80

Now, please, on to the next compound.
Report the value of pEC50 obtained on GLP-1R (Homo sapiens) for N#Cc1ccc(COc2cccc(-c3ccc(Cc4nc5ccc(C(=O)O)cc5n4C4CC4)c(F)c3)n2)c(F)c1 [Example 356] . 7.31

====

The molecules listed here are annotated with their EC50.
- Assayed target: GLP-1R (Homo sapiens)
- Experimental details: GLP-1R activation: cAMP increase in CHO cells stably expressing GLP-1R
- Type: cell-based
- Test parameters: read-out: EC50
# number only, unit nM dropped from output

Find the measured EC50 of "CC(=O)N1CC[C@@H]1Cn1c(Cc2ccc(-c3cccc(OCc4ccc(C#N)cc4F)n3)cc2F)nc2ccc(C(=O)O)cc21" with GLP-1R (Homo sapiens) as test system. 3.94

====

- Experimental details: Microsomal stability, human liver microsomes (predicted hepatic clearance)
- Test parameters: predicted from in vitro microsomal stability data
Quick reference: Predicted Hepatic Clearance (Pred. Cl.) of the listed items.
Give the value, in units of mL/min/kg, as a plain number.

Here is how some compounds turned out for Predicted Hepatic Clearance (Pred. Cl.).
compound="COCCn1c(Cc2ccc(-c3cc(OCc4ccc(C#N)cc4F)ccc3F)cc2F)nc2ccc(C(=O)O)cc21 [Example 28]" value_reported=3.17
compound="N#Cc1ccc(COc2cccc(-c3ccc(Cc4nc5c(F)cc(C(=O)O)cc5n4C[C@@H]4CCO4)cc3)n2)c(F)c1 [Example 633]" value_reported=4.83
compound="COCCn1c(Cc2ccc(-c3cccc(OCc4ccc(C#N)cc4F)n3)cc2-c2ccncc2)nc2ccc(C(=O)O)cc21 [Example 175]" value_reported=15.7
compound="N#Cc1ccc(COc2nccc(-c3cc(F)c(Cc4nc5ccc(C(=O)O)cc5n4CCOC4CC4)cc3F)n2)c(F)c1 [Example 897]" value_reported=2.17
compound="COCCn1c(Cc2c(F)cc(-c3ccnc(OCc4ccc(C#N)cc4F)n3)cc2F)nc2ccc(C(=O)O)cc21 [Example 378]" value_reported=5.5

Give the reported Predicted Hepatic Clearance (Pred. Cl.) for this compound. O=C(O)c1ccc2nc(Cc3cc(F)c(-c4cccc(OCc5ccc(Cl)cc5)n4)cc3F)n(C[C@@H]3CCO3)c2c1 [Example 808] 3.5

Could you please provide reported Predicted Hepatic Clearance (Pred. Cl.) for COCCn1c(Cc2ccc(-c3cccc(OCc4cccc(-c5ccccc5)c4)n3)cc2F)nc2ccc(C(=O)O)cc21 [Example 504] ? Thanks! 3.5

Please report the measured Predicted Hepatic Clearance (Pred. Cl.) for N#Cc1ccc(COc2ccnc(-c3ccc(Cc4nc5ccc(C(=O)O)cc5n4C[C@@H]4CCO4)cc3F)n2)c(F)c1 [Example 777] 4.5

Specify measured Predicted Hepatic Clearance (Pred. Cl.) for COCCn1c(Cc2ccc(-c3cccc(OCc4cccc(=O)n4C)n3)cc2F)nc2ccc(C(=O)O)cc21 [Example 373] . 19.5

Name the recorded Predicted Hepatic Clearance (Pred. Cl.) of the compound listed here: N#Cc1cc(F)c(COc2cccc(-c3cc(F)c(Cc4nc5ccc(C(=O)O)cc5n4C[C@@H]4CCO4)c(F)c3)n2)cc1F [Example 680] 5.5

State its Predicted Hepatic Clearance (Pred. Cl.): COCCNC(=O)C(Cn1c(Cc2ccc(-c3cccc(OCc4ccc(C#N)cc4F)n3)cc2F)nc2ccc(C(=O)O)cc21)OC (single isomer, unassigned) [Example 328] 11

Give a short answer stating reported Predicted Hepatic Clearance (Pred. Cl.) for N#CCC1(Cn2c(Cc3ccc(-c4cccc(OCc5ccc(C#N)cc5F)n4)c(F)c3)nc3ccc(C(=O)O)cc32)CC1 [Example 530] . 10.5

Provide measured Predicted Hepatic Clearance (Pred. Cl.) value, entry: COCCn1c(Cc2cc(F)c(-c3cccc(OCc4ccc(C#N)cc4F)n3)cc2F)nc2ccc(C(=O)O)nc21 [Example 208] 3.83

====

- Experimental details: Microsomal stability, human liver microsomes (predicted hepatic clearance)
- Test parameters: predicted from in vitro microsomal stability data
Rule: Predicted Hepatic Clearance (Pred. Cl.) under 3 mL/min/kg gives NO, otherwise YES.

Field: example entries. Status: answers known.
molecule="COCCn1c(Cc2ccc(-c3cccc(OCc4ccc(C#N)cc4F)n3)cc2COC)nc2ccc(C(=O)O)cc21 [Example 411]" category_label=YES
molecule="COC1(Cn2c(Cc3cc(F)c(-c4cccc(OCc5ccc(C#N)cc5F)n4)cc3F)nc3ccc(C(=O)O)cc32)CC1 [Example 746]" category_label=YES
molecule="COCCn1c(Cc2cc(F)c(-c3cccc(OCc4cccc(-c5ccn(C)n5)c4)n3)cc2F)nc2ccc(C(=O)O)cc21 [Example 914]" category_label=YES
molecule="N#Cc1ccc(COc2cccc(-c3ccc(Cc4nc5ccc(C(=O)O)cc5n4C[C@@H]4CCOC4)c(F)c3)n2)c(F)c1 [Example 197]" category_label=YES
molecule="COCCn1c(Cc2c(F)cc(-c3ncc(F)c(OCc4ccc(C#N)cc4F)n3)c(F)c2F)nc2ccc(C(=O)O)cc21 [Example 124]" category_label=YES

Hello, I need to know if O=C(O)c1ccc2nc(Cc3c(F)cc(-c4cccc(OCc5ccc(C(F)F)cc5F)n4)cc3F)n(C[C@@H]3CCO3)c2c1 [Example 679] has measured Predicted Hepatic Clearance (Pred. Cl.) not below 3 mL/min/kg. Thanks! YES

====

- Assayed target: GLP-1R (Homo sapiens)
- Experimental details: GLP-1R activation: cAMP increase in CHO cells stably expressing GLP-1R
- Assay type: cell-based
- Test parameters: cAMP increase, CHO cells stably expressing GLP-1R, 10 point dose response, 30 minutes incubation; read-out: EC50
pEC50: −log10 of the molar value.
Use 9 as the dividing line for pEC50, with the line itself on the class 1 side and lower values as class 0.

Reported pEC50 reaches at least 9 for N#Cc1ccc(COc2cccc(-c3ccc(Cc4nc5ccc(C(=O)O)cc5n4CC4(c5ccncc5)CC4)c(F)c3)n2)c(F)c1 [Example 275] ? class 0

Does the compound COCCn1c(Cc2ccc(-c3cccc(OCc4nnc(Cl)s4)n3)cc2F)nc2ccc(C(=O)O)cc21 [Example 590] have recorded pEC50 that is 9 or more? class 0

Item N#CCC1(Cn2c(Cc3c(F)cc(-c4ccc(F)c(OCc5ccc(C#N)cc5F)n4)cc3F)nc3ccc(C(=O)O)cc32)CC1 [Example 154] with pEC50 of 9 or above? class 1

====

- Assayed target: GLP-1R (Homo sapiens)
- Experimental details: GLP-1R activation: cAMP increase in CHO cells stably expressing GLP-1R
- Format: cell-based
- Test parameters: cAMP increase, CHO cells stably expressing GLP-1R, 10 point dose response, 30 minutes incubation; read-out: EC50
Below, each entry is listed with its recorded EC50.
Answer with the value and then the unit.

Give reported EC50 value for "COCCn1c(Cn2cc(F)c(-c3cccc(OCc4ccc(C#N)cc4F)n3)cc2=O)nc2c(F)cc(C(=O)O)cc21" 0.29 nM

Please list EC50 recorded for the compound "COCCn1c(Cc2ncc(-c3cccc(OCc4ccc(C#N)cc4F)n3)cc2Cl)nc2ccc(C(=O)O)cc21" 43.1 nM

====

- Experimental details: Microsomal stability, human liver microsomes (predicted hepatic clearance)
- Test parameters: predicted from in vitro microsomal stability data
Threshold 7 mL/min/kg: Predicted Hepatic Clearance (Pred. Cl.) strictly smaller gives yes, otherwise no.

These recorded examples may help you get a feel for the data.
molecule=COCCn1c(Cc2c(F)cc(-c3cccnc3OCc3ccccc3F)cc2F)nc2ccc(C(=O)O)cc21 category_label=no
molecule=N#Cc1ccc(COc2cccc(-c3cc(F)c(Cc4nc5ccc(C(=O)O)cc5n4[C@@H]4COC[C@@H]4O)cc3F)n2)c(F)c1 category_label=yes
molecule="N#Cc1ccc(COc2cccc(-c3ccc(Cc4nc5ccc(C(=O)O)cc5n4C[C@H]4CCS4(=O)=O)cc3)n2)c(F)c1 (racemic)" category_label=yes
molecule=N#Cc1ccc(COc2cccc(-c3cc(F)c(Cc4nc5c(F)cc(C(=O)O)cc5n4C[C@@H]4CCO4)cc3F)n2)c(F)c1 category_label=yes
molecule=CC(C)(C#N)Cn1c(Cc2ccc(-c3cccc(OCc4ccc(C#N)cc4F)n3)c(F)c2)nc2ccc(C(=O)O)cc21 category_label=no
molecule=COc1cc(Cl)ccc1COc1cccc(-c2ccc(Cc3nc4ccc(C(=O)O)cc4n3CC3(CC#N)CC3)cc2F)n1 category_label=no
molecule=CO[C@H]1CCC[C@@H]1n1c(Cc2cc(F)c(-c3cccc(OCc4ccc(C#N)cc4F)n3)cc2F)nc2ccc(C(=O)O)cc21 category_label=no
molecule=COCCn1c(Cc2ccc(-c3cccc(OCc4cccc5c4OCO5)n3)cc2F)nc2ccc(C(=O)O)cc21 category_label=no

Shifting focus to the molecule that follows.
is_below(Predicted Hepatic Clearance (Pred. Cl.), 7 mL/min/kg) for COCCn1c(Cc2ccc(-c3cccc(OC4CCOc5cc(C#N)ccc54)n3)cc2F)nc2ccc(C(=O)O)cc21 (stereo not drawn) ? yes
